Reference for the values: PubChem BioAssay AID330

I'd appreciate it if you could supply T/C values for the items below.
Test system: P388 leukemia ip, CD2F1 mice, survival T/C
Test: NCI In Vivo Anticancer Drug Screen. Data for tumor model P388 Leukemia (intraperitoneal) in CD2F1 (CDF1) mice
Settings: endpoint: median survival time; dose: 200.0 mg/kg/injection; schedule: Q04DX003 (ip); vehicle: saline; higher = longer survival
Toxic doses and inconclusive results are not listed.

Challenge: I'd like to know its T/C. The compound in question is OC(c1cccnc1)C(CCc1ccccn1)c1ccccn1 (centres undefined)
Response given: 101 % of control

Challenge: Another compound to check: COC1=CC2C3Cc4c(-c5cc(OC)c(O)c6c5CC5C7C=C(OC)C(=O)CC67CCN5C)cc(OC)c(O)c4C2(CCN3C)CC1=O (centres undefined)
Response given: 93 % of control

Challenge: Another compound to check: Cn1nnc(C(=O)O)n1
Response given: 103 % of control

Challenge: Another compound to check: CC(=O)O/N=C/c1ccncc1
Response given: 109 % of control

Challenge: Another compound to check: C=CCN1C(=O)[N+](C)(C)N=C1[O-]
Response given: 106 % of control

Challenge: Another compound to check: CCOC(=O)c1cn(C2OC(CO)C(O)C2O)c(=O)nc1N (centres undefined)
Response given: 100 % of control

Challenge: Another compound to check: C[Si](C)(C)C#CC(C(O)c1ccccc1)N1CCCC1 (centres undefined)
Response given: 92 % of control

Challenge: Another compound to check: Cc1cc(C)cc(C(N)=O)c1
Response given: 99 % of control

Challenge: Another compound to check: O=C1C=CC(=O)N1Cc1ccco1
Response given: 95 % of control

Challenge: Another compound to check: Cn1cncc1/C=N\NC(N)=S
Response given: 102 % of control

Challenge: Another compound to check: CC(C)C(O)C1CCOS1(=O)=O (centres undefined)
Response given: 101 % of control

Challenge: Another compound to check: Cc1ccc(S(=O)(=O)/N=C/[N-][n+]2cccc(C)c2)cc1
Response given: 97 % of control

Challenge: Another compound to check: CCCCCCCCCCCCS(=O)(=O)CCC(=O)c1ccco1
Response given: 99 % of control

Challenge: Another compound to check: O=C1CC(C(Cl)(Cl)Cl)O1 (centres undefined)
Response given: 99 % of control

----------
I'd appreciate it if you could supply T/C values for the items below.
Test system: P388 leukemia ip, CD2F1 mice, survival T/C
Assay: NCI In Vivo Anticancer Drug Screen. Data for tumor model P388 Leukemia (intraperitoneal) in CD2F1 (CDF1) mice
Conditions: endpoint: median survival time; dose: 50.0 mg/kg/injection; schedule: Q01DX005 (ip); vehicle: saline with Tween-80; higher = longer survival
Inconclusive results and toxic doses are left out. Square brackets hold non-standard residues; d marks the D form. Peptide text beside a SMILES is read from it. * marks the point of attachment. Nle = CCCC[CH](N)C(=O)O; Cbz = O=C(OCc1ccccc1)*

Challenge: I'd like to know its T/C. The compound in question is O=S(=O)(O)C1CC2C(c3ccccc31)N1ON2O1 (stereo not drawn)
Response given: 102 % of control

Challenge: Another compound to check: O=c1oc2ccc(Br)cc2cc1-n1nnc2cc([N+](=O)[O-])ccc21
Response given: 90 % of control

Challenge: Another compound to check: O=S(=O)(Nc1nccs1)c1ccc(NCc2c3ccccc3nc3cc(Cl)ccc23)cc1
Response given: 88 % of control

Challenge: Another compound to check: C(=C/c1nc2ccccc2nc1CCN1CCCCC1)/c1ccc2c(c1)OCO2
Response given: 100 % of control

Challenge: Another compound to check: N#CC(C(=O)C(=O)Nc1cccc(C(F)(F)F)c1)c1c(Cl)cccc1Cl (stereo not drawn)
Response given: 98 % of control

Challenge: Another compound to check: O=c1[nH]c(=O)c2c(Cl)cccc2[nH]1
Response given: 93 % of control

Challenge: Another compound to check: CCOc1ccc(/C=C(\C(=O)c2ccccc2)S(=O)(=O)c2ccc(OC)cc2)cc1OC
Response given: 92 % of control

Challenge: Another compound to check: Cc1ccc2c(c1)C1(C)OC(C=CC1(C)O)O2 (stereo not drawn)
Response given: 101 % of control

Challenge: Another compound to check: COc1ccc(C2(O)CC3CCC(C2)N3C)cc1 (stereo not drawn)
Response given: 93 % of control

Challenge: Another compound to check: CCCCCc1cc(O)cc2c1Oc1cc(O)cc(C(=O)CCCC)c1C(=O)O2
Response given: 98 % of control

Challenge: Another compound to check: CCCOc1cc2c(cc1C(C)(C)c1ccccc1)OCO2
Response given: 95 % of control

Challenge: Another compound to check: C[Si](C)(C)Cn1ccc(=O)n(C[Si](C)(C)C)c1=O
Response given: 107 % of control

Challenge: Another compound to check: Cc1ccc(C)c(NC(=O)/C=N/O)c1
Response given: 98 % of control

Challenge: Another compound to check: CCCCCCCCCCCCCCCCS[As](C)C
Response given: 92 % of control

Challenge: Another compound to check: CC(=O)c1c(-c2ccc(Cl)cc2)c(-c2ccc(Cl)cc2)nn(C(C)CO)c1=O (stereo not drawn)
Response given: 103 % of control

Challenge: Another compound to check: CCCCC(NC(=O)C(Cc1ccccc1)NC(=O)OCc1ccccc1)C(=O)O (stereo not drawn) (Cbz-Phe-[Nle]-OH; configuration not given here)
Response given: 104 % of control

Challenge: Another compound to check: CN1CC[C@@H](c2ccccc2)[C@@H](O)C1
Response given: 97 % of control

Challenge: Another compound to check: CC(=O)OCC1OC(OC(C)=O)C(NC(=S)NCC(=O)c2ccc(C)cc2)C(OC(C)=O)C1OC(C)=O (stereo not drawn)
Response given: 99 % of control

Challenge: Another compound to check: CC(SCCCCCCCCCCCCSC(C)C(=O)O)C(=O)O (stereo not drawn)
Response given: 106 % of control

Challenge: Another compound to check: O=C(N/N=C/c1ccc(O)c(O)c1)c1ccccc1
Response given: 109 % of control

Challenge: Another compound to check: COc1ccccc1/C=N/N1C(=O)C2C3C=CC(O3)C2C1=O (stereo not drawn)
Response given: 104 % of control

Challenge: Another compound to check: NC(CC(=O)O)CC(=O)O
Response given: 95 % of control

Challenge: Another compound to check: O=C1CN(Cc2cccc(Cl)c2)CC(=O)N2Cc3ccccc3CN12
Response given: 106 % of control

----------
I'd appreciate it if you could supply T/C values for the items below.
Tested on: P388 leukemia ip, CD2F1 mice, survival T/C
Experiment: NCI In Vivo Anticancer Drug Screen. Data for tumor model P388 Leukemia (intraperitoneal) in CD2F1 (CDF1) mice
Conditions: endpoint: median survival time; dose: 6.25 mg/kg/injection; schedule: Q01DX009 (ip); vehicle: saline; higher = longer survival
Toxic doses and inconclusive results are not listed.

Challenge: Lookup: T/C / P388 leukemia ip, CD2F1 mice, survival T/C / OC(CN1CCCCC1)c1ccc(/C=C/c2ccc(Cl)cc2)cc1 (stereo not drawn)
Response given: 100 % of control

Challenge: Another compound to check: C[n+]1cc2ccccc2c2ccccc21
Response given: 117 % of control

Challenge: Another compound to check: O=C1C2C3CCC(O3)C2C(=O)N1SC(Cl)(Cl)Cl (stereo not drawn)
Response given: 108 % of control

----------
Tested on: P388 leukemia ip, CD2F1 mice, survival T/C
Experiment: NCI In Vivo Anticancer Drug Screen. Data for tumor model P388 Leukemia (intraperitoneal) in CD2F1 (CDF1) mice
Conditions: endpoint: median survival time; dose: 400.0 mg/kg/injection; schedule: Q01DX009 (ip); vehicle: saline; higher = longer survival
Toxic doses and inconclusive results are not listed.
I'd appreciate it if you could supply T/C values for the items below.

Challenge: Lookup: T/C / P388 leukemia ip, CD2F1 mice, survival T/C / NC(=O)CC(N)CO (stereo unspecified)
Response given: 101 % of control

Challenge: Another molecule to check: Nc1ncn[nH]1
Response given: 99 % of control

Challenge: Another molecule to check: CC(=O)NC(C)C(C)(C)O (stereo unspecified)
Response given: 105 % of control

Challenge: Another molecule to check: Clc1cccnc1Cl
Response given: 97 % of control

Challenge: Another molecule to check: CNC(=O)Oc1c(C)[nH]ccc1=O
Response given: 107 % of control

Challenge: Another molecule to check: COC1C(OC(=O)c2ccc(C)[nH]2)C(O)C(Oc2ccc3c(O)c(NC(=O)c4c[nH]c(C(=O)Nc5c(O)c6ccc(OC7OC(C)(C)C(OC)C(OC(=O)c8ccc(C)[nH]8)C7O)c(C)c6oc5=O)c4C)c(=O)oc3c2C)OC1(C)C (stereo unspecified)
Response given: 117 % of control
